assay: qHTS of pediatric cancer cell lines to identify multiple opportunities for drug repurposing: Confirmatory screen for OHS-50 cells (AID 1347128); details: OHS-50 osteosarcoma cells viability; series mostly up to 45.9 µM;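 further: compound exposure lasted 48 h at 37 degrees C; nearly all actives have a fitted effect of over 55% in size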
Results filed as inconclusive are left out. Calls of active or inactive are those of the source. The call rests on the fitted dose curve; in most records, active means well fitted cell-killing curve with a large enough effect; inconclusive means small, poorly fitted or top-dose-only effect, or effect the other way; inactive means no such curve, though single readings can be large or run the other way.
Possible outcomes: TRUE (active), FALSE (inactive)

[[record]]
molecule = "O=C(N[C@H]1CN2CCC1CC2)c1ccc(Cl)cc1"
assigned_label = "TRUE"

[[record]]
molecule = "CS(=O)(=O)c1ccc(C(=O)C2C(=O)CCCC2=O)c([N+](=O)[O-])c1"
assigned_label = "FALSE"

[[record]]
molecule = "Cc1[nH]nc2ccc(-c3cncc(OC[C@@H](N)Cc4c[nH]c5ccccc45)c3)cc12"
assigned_label = "TRUE"

[[record]]
molecule = "COc1cc2cc(c1Cl)N(C)C(=O)C[C@H](OC(=O)C(C)C)[C@]1(C)O[C@H]1[C@H](C)[C@@H]1C[C@@](O)(NC(=O)O1)[C@H](OC)C=CC=C(C)C2"
assigned_label = "TRUE"

[[record]]
molecule = "Cc1ccccc1-n1c(Cn2ncc3c(N)ncnc32)nc2cccc(C)c2c1=O"
assigned_label = "TRUE"

[[record]]
molecule = "O=C(Nc1ccncc1)C(=O)c1cn(Cc2ccc(Cl)cc2)c2ccccc12"
assigned_label = "TRUE"

[[record]]
molecule = "CC(C)N[C@@H]1CCn2c(=O)[nH]c3cccc(c32)[C@@H]1O"
assigned_label = "FALSE"

[[record]]
molecule = "O=C(O)COc1nc(Cl)c(Cl)cc1Cl"
assigned_label = "FALSE"

[[record]]
molecule = "C[C@]12Cc3cn[nH]c3C[C@@H]1CC[C@@H]1[C@H]2CC[C@@]2(C)[C@H]1CC[C@]2(C)O"
assigned_label = "FALSE"

[[record]]
molecule = "O=C(O)CCCOc1ccc(Cl)cc1Cl"
assigned_label = "FALSE"

[[record]]
molecule = "CC(C)(C)C(O)C(Oc1ccc(Cl)cc1)n1cncn1 (stereo not given)"
assigned_label = "FALSE"

[[record]]
molecule = "CC(C)(O)C=CC(=O)[C@](C)(O)[C@H]1[C@H](O)C[C@]2(C)[C@@H]3CC=C4[C@@H](C=C(O)C(=O)C4(C)C)[C@]3(C)C(=O)C[C@@]12C"
assigned_label = "TRUE"

[[record]]
molecule = "C[C@@H]1CC[C@@]2(OC1)O[C@H]1C[C@H]3[C@@H]4CC=C5C[C@@H](O[C@@H]6O[C@H](CO)[C@@H](O[C@@H]7O[C@@H](C)[C@H](O)[C@@H](O)[C@@H]7O)[C@H](O)[C@@H]6O[C@@H]6O[C@@H](C)[C@H](O)[C@@H](O)[C@@H]6O)CC[C@]5(C)[C@@H]4CC[C@]3(C)[C@@H]1[C@H]2C"
assigned_label = "TRUE"

[[record]]
molecule = "CO[C@H]1CCC(O[C@H]2C[C@H]([C@]3(C)CC[C@]4(C[C@H](O)[C@@H](C)[C@@H]([C@@H](C)C=C(C)C(=O)[C@H](C)C[C@H](C)C(=O)O)O4)O3)O[C@]3(O[C@@H]([C@H]4O[C@@](O)(CO)[C@H](C)C[C@H]4C)C[C@H]3C)[C@H]2C)O[C@H]1C (stereo not given in full)"
assigned_label = "TRUE"

[[record]]
molecule = "CC1=C(O)C(=O)C=C2C1=CC=C1[C@@]2(C)CC[C@@]2(C)[C@@H]3C[C@](C)(C(=O)O)CC[C@]3(C)CC[C@]12C"
assigned_label = "TRUE"

